Molecular target: 17β-hydroxysteroid dehydrogenase type 3 (17β-HSD type 3) (Homo sapiens, UniProt P37058)
Construct: expressed in transfected cells; host or cells: MCF-7
Sequence (P37058 whole entry): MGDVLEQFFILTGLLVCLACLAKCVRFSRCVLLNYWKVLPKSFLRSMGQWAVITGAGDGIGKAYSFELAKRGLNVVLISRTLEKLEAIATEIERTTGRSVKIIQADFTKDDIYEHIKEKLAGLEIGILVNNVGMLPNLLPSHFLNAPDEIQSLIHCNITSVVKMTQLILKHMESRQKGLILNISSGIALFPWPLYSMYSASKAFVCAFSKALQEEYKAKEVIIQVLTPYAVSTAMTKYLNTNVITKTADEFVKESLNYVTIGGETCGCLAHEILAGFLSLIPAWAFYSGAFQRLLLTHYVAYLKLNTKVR
Test: Inhibition of 17β-HSD type 3 in MCF-7 cells stably expressing the isoenzyme (tritium labeled androstenedione conversion, HPLC)
Type: cell-based
Details: MCF7; 1 μM test compound; MCF-7 cells expressing 17β-HSD type 3; 2 nM tritium labeled androstenedione; read-out: % Inhibition HSD3 1 μM
Observed Property: inhibition at 1 µM (%)
Please state the figure in %; there is no need to write the unit.

Exercise: Request - read-out inhibition at 1 µM | tested on 17β-hydroxysteroid dehydrogenase type 3 (17β-HSD type 3) (Homo sapiens, UniProt P37058) | molecule O=c1c2c(nc(-c3ccccc3)n1Cc1ccccc1)sc1c(O)cccc12
Key: 10

Exercise: Request - read-out inhibition at 1 µM | tested on 17β-hydroxysteroid dehydrogenase type 3 (17β-HSD type 3) (Homo sapiens, UniProt P37058) | molecule CCCc1nc2sc3c(c2c(=O)n1Cc1ccccc1OC)CCCC3
Key: 2.2

Exercise: Request - read-out inhibition at 1 µM | tested on 17β-hydroxysteroid dehydrogenase type 3 (17β-HSD type 3) (Homo sapiens, UniProt P37058) | molecule O=c1c2c(nc(-c3cccs3)n1Cc1ccccc1)sc1c(O)cccc12
Key: 19.1

Exercise: Request - read-out inhibition at 1 µM | tested on 17β-hydroxysteroid dehydrogenase type 3 (17β-HSD type 3) (Homo sapiens, UniProt P37058) | molecule CC(=O)Oc1c(Br)ccc2c1sc1nc(-c3ccccc3)n(Cc3ccccc3)c(=O)c12
Key: 19.4
